All figures here come from patent US11878967B2.

procedureText: Water Vapour Sorption isotherm (25° C.), DVS system from SMS
Type: physicochemical
Structures can show the parent of a compound that is named as a salt.
measuredQuantity: Hygroscopicity classification acc. to Ph. Eur. criteria (section 5.11.)

Answered examples (4):
1) C=CC(=O)N1CCC(F)(CNc2ncnc(N)c2-c2ccc(Oc3ccccc3)cc2)CC1 [HBr-NF1]
slightly hygroscopic
2) C=CC(=O)N1CCC(F)(CNc2ncnc(N)c2-c2ccc(Oc3ccccc3)cc2)CC1 [Mesylate-NF1]
slightly hygroscopic
3) C=CC(=O)N1CCC(F)(CNc2ncnc(N)c2-c2ccc(Oc3ccccc3)cc2)CC1 [HCl-NF1]
slightly hygroscopic
4) C=CC(=O)N1CCC(F)(CNc2ncnc(N)c2-c2ccc(Oc3ccccc3)cc2)CC1 [Fumarate-NF1]
slightly hygroscopic

Ask: Return reported Hygroscopicity classification acc. to Ph. Eur. criteria (section 5.11.); argument: C=CC(=O)N1CCC(F)(CNc2ncnc(N)c2-c2ccc(Oc3ccccc3)cc2)CC1 [Maleate-NF1]
Result: slightly hygroscopic

----------
procedureText: Mini-dissolution in FaSSIF medium pH 6.5 at 37° C.
Format: physicochemical
settings: 30 min, 37° C.
Structures can show the parent of a compound that is named as a salt.
This listing pairs molecules with measured Dissolution levels in FaSSIF pH 6.5.

Answered examples (5):
1. C=CC(=O)N1CCC(F)(CNc2ncnc(N)c2-c2ccc(Oc3ccccc3)cc2)CC1 [HCl-NF1]
55 μg/mL
2. C=CC(=O)N1CCC(F)(CNc2ncnc(N)c2-c2ccc(Oc3ccccc3)cc2)CC1 [Oxalate-NF1]
22 μg/mL
3. C=CC(=O)N1CCC(F)(CNc2ncnc(N)c2-c2ccc(Oc3ccccc3)cc2)CC1 [Free base form A1]
16 μg/mL
4. C=CC(=O)N1CCC(F)(CNc2ncnc(N)c2-c2ccc(Oc3ccccc3)cc2)CC1 [HBr-NF1]
23 μg/mL
5. C=CC(=O)N1CCC(F)(CNc2ncnc(N)c2-c2ccc(Oc3ccccc3)cc2)CC1 [Free base form A2]
7 μg/mL

Here is another molecule to look at.
Ask: I am curious: what Dissolution levels in FaSSIF pH 6.5 value has been reported for C=CC(=O)N1CCC(F)(CNc2ncnc(N)c2-c2ccc(Oc3ccccc3)cc2)CC1 [Fumarate-NF1] ?
Result: 14 μg/mL

----------
procedureText: Thermodynamic solubility (24 h) at 37° C. of free base forms
Type: physicochemical
settings: FaSSIF (Fasted-State Simulated Intestinal Fluid), 37 °C, pH 6.5, fassif, thermodynamic from solid, Fasted-State Simulated Intestinal Fluid pH 6.5, read-out: Thermodynamic solubility FaSSIF pH 6.5
measuredQuantity: solubility thermodynamic at 24 h

Ask: Which value of solubility thermodynamic at 24 h has been reported for C=CC(=O)N1CCC(F)(CNc2ncnc(N)c2-c2ccc(Oc3ccccc3)cc2)CC1 [Free base form A1] in the records?
Result: ~17 µg/mL

----------
procedureText: Mini-dissolution in FaSSIF medium pH 6.5 at 37° C.
Format: physicochemical
settings: 60 min, 37° C.
Structures can show the parent of a compound that is named as a salt.
measuredQuantity: Dissolution levels in FaSSIF pH 6.5 (μg/mL)
Give just the numeric value; μg/mL need not be written.

Example compounds with recorded Dissolution levels in FaSSIF pH 6.5:
1) C=CC(=O)N1CCC(F)(CNc2ncnc(N)c2-c2ccc(Oc3ccccc3)cc2)CC1 [Free base form A1]
17
2) C=CC(=O)N1CCC(F)(CNc2ncnc(N)c2-c2ccc(Oc3ccccc3)cc2)CC1 [Free base form A2]
8
3) C=CC(=O)N1CCC(F)(CNc2ncnc(N)c2-c2ccc(Oc3ccccc3)cc2)CC1 [Fumarate-NF1]
18
4) C=CC(=O)N1CCC(F)(CNc2ncnc(N)c2-c2ccc(Oc3ccccc3)cc2)CC1 [HBr-NF1]
27
5) C=CC(=O)N1CCC(F)(CNc2ncnc(N)c2-c2ccc(Oc3ccccc3)cc2)CC1 [HCl-NF1]
43

Field: next compound
Ask: Endpoint output: Dissolution levels in FaSSIF pH 6.5 of C=CC(=O)N1CCC(F)(CNc2ncnc(N)c2-c2ccc(Oc3ccccc3)cc2)CC1 [Oxalate-NF1] . Value?
Result: 39
